B1: glmS ribozyme (parent)
chain: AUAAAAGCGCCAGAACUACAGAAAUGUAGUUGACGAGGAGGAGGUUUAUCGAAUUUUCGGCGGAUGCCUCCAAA

- Variants of: B1
- Method summary: KM; higher = weaker cofactor use; RNA array
- Conditions: with glucosamine-6-phosphate
Measurement name: log10(KM) (log10 of the value in µM)
On a log10 scale: recorded KM, unit µM.

C58A C70U
2.86
A52G C71A
3.50
U45G A48U
3.48
C16A C61G
2.20

Task item: Suppose we examine the variant A12G U56G ; what log10(KM) value has been reported?
Reply: 3.82

Task item: Suppose we examine the variant G29C U45C ; what log10(KM) value has been reported?
Reply: 3.33

Task item: Suppose we examine the variant A12U A64U ; what log10(KM) value has been reported?
Reply: 3.38

Task item: Suppose we examine the variant C50A A64G ; what log10(KM) value has been reported?
Reply: 2.03

Numbers sourced from the supplement of paper PMC7125110.
